Could you please report measured pIC50 for the items listed next?
test system: Bel-7402; experiment: MTT assay, Bel-7402 cells; format: cell-based, human; conditions: Homo sapiens, Bel-7402, 72 h incubation, read-out: Half maximal inhibitory concentration (IC50) values, Bel-7402
Reminder that pIC50 is minus the log10 of a molar concentration.

// query Reported pIC50 for Bel-7402, given C=C(C)[C@@H]1CC[C@]2(C(=O)OCCCOC(=O)c3nc(C)c(C)nc3C)CC[C@]3(C)[C@H](CC[C@@H]4[C@@]5(C)CCC(=O)C(C)(C)[C@@H]5CC[C@]43C)[C@@H]12 ?
// result 4.95

// query And the next one, C=C(C)[C@@H]1CC[C@]2(C(=O)OCCCOC(=O)c3ccncn3)CC[C@]3(C)[C@H](CC[C@@H]4[C@@]5(C)CCC(=O)C(C)(C)[C@@H]5CC[C@]43C)[C@@H]12 ?
// result 4.65

// query And the next one, C=C(C)[C@@H]1CC[C@]2(C(=O)OCCCCOC(=O)c3nccnc3C)CC[C@]3(C)[C@H](CC[C@@H]4[C@@]5(C)CCC(=O)C(C)(C)[C@@H]5CC[C@]43C)[C@@H]12 ?
// result 5.41
